- Test system: HS 578T breast
- assay: NCI-60 one-dose screen, 48 h (100 = growth as untreated, 0 = no growth, -100 = all killed)
- measurement.parameters: 10 µM unless noted
Compounds without any hit were thinned out: in the full panel of roughly 83,000, 20% have a hit.
Recorded growth values for a group of molecules are listed next.
assay.readout: growth (%)

>>> measurement("O=c1oc2c(cc1-c1ccccc1)c(=O)[nH]c1ccccc12")
98.1
>>> measurement("COc1ccc(/C=N/NC(=O)Cn2c(-c3ccc(S(C)(=O)=O)cc3)nc3ccccc32)cc1")
92.4
>>> measurement("COC1C(O)CC(OC2CC(OC3CC(O[C@@H]4C(=O)c5c(cc6cc(OC7CC(OC8CC(O)C(O)C(C)O8)C(O)C(C)O7)c(C)c(O)c6c5O)CC4[C@H](OC)[C@@H](O)C(C)=O)OC(C)C3O)OC(C)C2O)OC1C (stereo partly specified)")
21.7
>>> measurement("N#Cc1c(-c2ccc(Cl)cc2)nc(NN=Cc2ccc[nH]2)nc1N1CCOCC1")
95
>>> measurement("O=C(NCCCCO)c1cncnc1Nc1ccc2c(ccn2Cc2cccc(F)c2)c1")
94.1
>>> measurement("N=C(N)c1ccc(OCCSCCOc2ccc(C(=N)N)cc2)cc1")
85.4
>>> measurement("CC1(C)N=C(N)N=C(N)N1c1ccc(S(=O)(=O)Nc2nccs2)cc1")
103
>>> measurement("CCCCCCCCn1ccc2cc(NC(=O)CN=[N+]=[N-])ccc21")
101
>>> measurement("Ic1ccc(Nc2nc3nonc3nc2Nc2ccc(I)cc2)cc1")
19.2
>>> measurement("Nc1nc2ccccc2c2c(=O)c3cc(Cl)ccc3sc12")
100
>>> measurement("NCCCNc1nc2ccccc2c2c(=O)c3cc(Cl)ccc3sc12")
43

----------
- Test system: RXF 393 renal
- assay: NCI-60 one-dose screen, 48 h
- measurement.parameters: 10 µM unless noted
This is part of a sample that, as a whole, favours compounds with a hit. Of some 83,000 tested, about 20% had one in any assay. Calls of active or inactive are those of the source. The calls were made as follows: active = growth percent below 10; inactive = the rest.
Labels: Y for active, N for inactive

>>> classification("Ic1ccc(Nc2nc3nonc3nc2Nc2ccc(I)cc2)cc1")
"Y"
>>> classification("N#C/C(=C\\c1ccc(-c2cccc(Cl)c2)o1)C(=O)Nc1ncc(Cc2ccc(Cl)cc2)s1")
"N"
>>> classification("C=CN(C(=O)N1CCN(c2cc3c(cc2F)c(=O)c(C(=O)O)cn3C2CC2)CC1)c1nc(-c2ccc(Cl)cc2)cs1")
"N"

----------
- Test system: SNB-75 CNS
- assay: NCI-60 one-dose screen, 48 h (100 = growth as untreated, 0 = no growth, -100 = all killed)
- measurement.parameters: 10 µM unless noted
- Method: Growth inhibition of the SNB-75 human tumor cell line is measured as a screen for anti-cancer activity. Cells are grown in 96 well plates and exposed to the test compound for 48 hours. Compounds are tested at a single concentration, which is 10^-5 M for most compounds. The reported endpoint is percent growth (GI% or GIPRCNT), where numbers from 0 - 100% represent growth inhibition, and numbers from -100% - 0 represent cell death. For example, a value of 40 represents 60% growth inhibition. […]
Compounds without any hit were thinned out: in the full panel of roughly 83,000, 20% have a hit.
assay.readout: growth (%)

>>> measurement("COc1cc2c(c(OC)c1OC)CCC(c1cccc(C(=O)Nc3ccc(Br)cc3)c1)O2 (centres undefined)")
61.8
>>> measurement("Nc1ncnc2c1N=C(c1ccc(Cl)cc1)CC(c1cccc(Nc3ccnc4cc(Cl)ccc34)c1)N2 (centres undefined)")
60.4
>>> measurement("COCCn1cc(-c2nc(-c3cc4cccnc4n3C)cs2)c2ccccc21")
61.3
>>> measurement("Cc1ccc(OCCOCCOCCOc2ccc(C)n(O)c2=S)c(=S)n1O")
59.2
